- ASSAY_SYSTEM: SARS-COV-2 RBD extracellular domain expressed with a C-terminal myc-myc-hexahistidine tag (SARS-CoV-2)
- METHOD_NOTES: SPR (Biacore), mAb captured by anti-human Fc, RBD-mmH in solution, 25 C
ENDPOINT_NAME: kon
Quick note: unit goes after the number.

# annotated cases, reported kon shown
[[record]]
binder = "mAb15151 (antibody, V domains shown) VH: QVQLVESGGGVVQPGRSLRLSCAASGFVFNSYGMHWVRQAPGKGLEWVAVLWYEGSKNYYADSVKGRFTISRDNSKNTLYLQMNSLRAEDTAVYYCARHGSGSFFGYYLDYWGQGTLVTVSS VL: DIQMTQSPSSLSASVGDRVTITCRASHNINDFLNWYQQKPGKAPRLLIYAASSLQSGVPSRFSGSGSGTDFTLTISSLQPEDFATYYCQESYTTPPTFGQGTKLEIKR"
reading = "200000 M⁻¹ s⁻¹"

[[record]]
binder = "mAb14234 (antibody, V domains shown) VH: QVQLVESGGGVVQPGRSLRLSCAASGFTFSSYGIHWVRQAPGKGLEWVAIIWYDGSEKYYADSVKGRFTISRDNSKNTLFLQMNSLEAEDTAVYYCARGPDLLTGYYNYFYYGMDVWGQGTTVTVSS VL: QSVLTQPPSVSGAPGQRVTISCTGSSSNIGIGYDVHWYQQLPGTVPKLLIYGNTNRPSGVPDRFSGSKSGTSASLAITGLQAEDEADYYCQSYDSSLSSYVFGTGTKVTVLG"
reading = "550000 M⁻¹ s⁻¹"

[[record]]
binder = "mAb14247 (antibody, V domains shown) VH: QITLKESGPTLVKPTQTLTLTCTFSGFSLSTSAVGVGWIRQPPGKALEWLALIYWDDDKRYSPSLKSRLTITKDTSKNQLVLTMTNVDPVDTATYYCAHHTIQLIFDYWGQGTLVTVSS VL: QSALTQPASVSGSPGQSITISCTATSSDVGNYNYVSWYQQHPGKAPKLMIYEVSNRPSGVSNRFSGSKSGNTASLTISGLQAEDEADYYCSSYTSSSTPLVFGGGTKLTVLG"
reading = "838000 M⁻¹ s⁻¹"

[[record]]
binder = "mAb15164 (antibody, V domains shown) VH: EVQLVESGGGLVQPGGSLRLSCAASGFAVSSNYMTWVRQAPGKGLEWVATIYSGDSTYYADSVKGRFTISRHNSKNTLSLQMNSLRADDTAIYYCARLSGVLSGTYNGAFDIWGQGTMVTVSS VL: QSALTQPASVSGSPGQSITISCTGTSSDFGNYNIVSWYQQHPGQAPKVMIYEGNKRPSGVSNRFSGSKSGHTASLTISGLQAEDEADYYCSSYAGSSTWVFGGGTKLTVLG"
reading = "228000 M⁻¹ s⁻¹"


Note: attention shifts to another entry.
Prompt: Could you share which kon value was measured for mAb14283 (antibody, V domains shown) VH: QVQLQESGPGLVKPSGTLSLTCDVSGGSISSNNWWSWVRQRPGKGLQWIGEIYHNENTNYNPSLKSRVIMSIDKSKNQFSLKLTSVTAADTAVYYCARGDVLDWFDPWGQGTLVTVSS VL: QSALTQPASVSGSPGQSTTISCTGTSSDVGGYNYVSWYQQYPGKAPKLMIYDVTNRPSGVSHRFSGSKSGNTASLTISGLQAEDEADYYCSSYTSSSTVIFGGGTKLTVLG ?
Completion: 1.46e+06 M⁻¹ s⁻¹
